# target_or_system: Cytochrome P450 2C19 (Homo sapiens) (UniProt P33261)
# Sequence (P33261 whole entry, looked up): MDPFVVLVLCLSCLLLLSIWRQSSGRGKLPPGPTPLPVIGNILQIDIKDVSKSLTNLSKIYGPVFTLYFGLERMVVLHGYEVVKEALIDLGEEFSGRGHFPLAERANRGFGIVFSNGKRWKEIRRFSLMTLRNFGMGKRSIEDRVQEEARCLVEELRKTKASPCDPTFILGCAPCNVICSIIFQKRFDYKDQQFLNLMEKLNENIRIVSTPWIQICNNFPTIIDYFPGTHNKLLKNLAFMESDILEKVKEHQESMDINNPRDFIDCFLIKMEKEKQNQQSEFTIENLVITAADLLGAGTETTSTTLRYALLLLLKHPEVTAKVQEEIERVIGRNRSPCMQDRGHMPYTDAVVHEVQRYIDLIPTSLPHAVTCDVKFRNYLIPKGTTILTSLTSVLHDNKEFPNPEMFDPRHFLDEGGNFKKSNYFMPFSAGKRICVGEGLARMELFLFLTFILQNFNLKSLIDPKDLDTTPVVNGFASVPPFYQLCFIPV
# assay_explanation: qHTS Assay for Inhibitors and Substrates of Cytochrome P450 2C19 (AID 899); also: nearly all actives have a fitted effect of over 60% in size
# experimental_parameters: recombinant CYP2C19, luciferin-H EGE luminescence; series mostly up to 57.1 µM
Results filed as inconclusive are left out. Active and inactive are the calls of the source. Calls follow the shape of the dose curve; as a rule, active = well fitted inhibition curve with a large enough effect; inconclusive = small, poorly fitted or top-dose-only effect; inactive = no such curve, though single readings can be large or run the other way.
Respond only with the outcome that fits, drawn from y for active, n for inactive

| smiles_structure | target_or_system | class_name |
| --- | --- | --- |
| O=C(Nc1ccccc1)N1CC[C@@]2(CCCN(C(=O)c3cc(C(F)(F)F)cc(C(F)(F)F)c3)C2)C1 | Cytochrome P450 2C19 (Homo sapiens) (UniProt P33261) | n |

Outcome logged for c1csc(CNc2ccnc(-c3ccc4c(c3)OCO4)n2)c1 in this assay:
y

Any idea what this test logged for O=S(=O)(c1ccccc1)N1CCC2(CCCN(Cc3nccs3)C2)CC1 ?
n

###

# System: ICS
# assay_explanation: qHTS profiling for inhibitors of Plasmodium falciparum proliferation (AID 504749); also: nearly all actives have a fitted effect of over 60% in size
# experimental_parameters: P. falciparum in erythrocytes, SYBR Green DNA, 72 h; series mostly up to 12.8 µM
Records with an inconclusive call do not appear. Activity calls are given as the source filed them. Calls follow the shape of the dose curve; as a rule, active = well fitted inhibition curve with a large enough effect; inconclusive = small, poorly fitted or top-dose-only effect; inactive = flat fitted curve, though single readings scatter.
Reply using exactly one outcome from active, inactive

Sample answers from the record:
| compound | class_name |
| --- | --- |
| CCC[C@H]1C(=O)N2C(N(C)C)=Nc3ccc(C)cc3N2C1=O | inactive |
| CN1[C@@H]2CC[C@H]1CC(OC(=O)[C@@H](O)c1ccccc1)C2 (stereo partly drawn) | inactive |
| C[N+](C)(C)CC(O)CC(=O)O (stereo not drawn) | inactive |
| COc1ccccc1OC[C@H](O)COC(N)=O | inactive |
| CO/N=C(\C(=O)N[C@@H]1C(=O)N2C(C(=O)O)=C(COC(C)=O)CS[C@@H]12)c1csc(N)n1 | inactive |
| C[n+]1ccccc1/C=N\O | inactive |
| O=C(c1ccccc1)c1ccc2n1CC[C@H]2C(=O)O | inactive |
| Cc1cc(/C=C\c2ccc3cc(N(C)C)ccc3[n+]2C)c(C)n1-c1ccccc1 | active |

Would you mind telling me which call this test gave CN(C)[C@@H]1C(=O)C(C(N)=O)=C(O)[C@]2(O)C(=O)C3=C(O)c4c(O)ccc(Cl)c4[C@H](O)[C@H]3C[C@@H]12 ?
active

Outcome logged for CC(=O)N(CC(O)CN(C(C)=O)c1c(I)c(C(=O)NC[C@@H](O)CO)c(I)c(C(=O)NC[C@@H](O)CO)c1I)c1c(I)c(C(=O)NC[C@@H](O)CO)c(I)c(C(=O)NC[C@@H](O)CO)c1I in this assay:
inactive

# outcome recorded in this test, key = CCCN[C@@H](C)C(=O)Nc1ccccc1C
inactive

Outcome? CCCN[C@@H](C)C(=O)Nc1c(C)csc1C(=O)OC
inactive

Hey, what did the test say about CCN(CC)CCC[C@H](C)Nc1ccnc2cc(Cl)ccc12 ?
active

Outcome? CC[C@]1(C)CC(=O)NC1=O
inactive

Dear all, I need the recorded test outcome for CCn1cc(C(=O)O)c(=O)c2cc(F)c(N3CCN[C@@H](C)C3)c(F)c21 , thank you.
inactive

Please let me know the test result on file for CC(C)NC[C@H](O)c1cc(O)cc(O)c1 .
inactive

Which result was noted for this compound in the test: C/C=C\C(=O)N(CC)c1ccccc1C
inactive

Given O=c1[nH]c(=O)n([C@@H]2C[C@H](O)[C@H](CO)O2)cc1I , state the outcome it received in this test.
inactive

I'd appreciate the recorded outcome for NC(=O)OC[C@H](O)COc1ccc(Cl)cc1 from this test.
inactive

Outcome logged for NS(=O)(=O)c1cc([C@@]2(O)NC(=O)c3ccccc32)ccc1Cl in this assay:
inactive

Please indicate how the test categorized C[C@@H]1c2cccc(O)c2C(O)=C2C(=O)[C@@]3(O)C(O)=C(C(N)=O)C(=O)[C@@H](N(C)C)[C@@H]3[C@@H](O)[C@@H]21 .
active

Which result was noted for this compound in the test: CC(C)(O/N=C(\C(=O)N[C@@H]1C(=O)N2C(C(=O)[O-])=C(C[n+]3ccccc3)CS[C@@H]12)c1csc(N)n1)C(=O)O
inactive

###

# target_or_system: Dual specificity protein kinase CLK4 (Homo sapiens) (UniProt Q9HAZ1)
# Sequence (Q9HAZ1 whole entry, looked up): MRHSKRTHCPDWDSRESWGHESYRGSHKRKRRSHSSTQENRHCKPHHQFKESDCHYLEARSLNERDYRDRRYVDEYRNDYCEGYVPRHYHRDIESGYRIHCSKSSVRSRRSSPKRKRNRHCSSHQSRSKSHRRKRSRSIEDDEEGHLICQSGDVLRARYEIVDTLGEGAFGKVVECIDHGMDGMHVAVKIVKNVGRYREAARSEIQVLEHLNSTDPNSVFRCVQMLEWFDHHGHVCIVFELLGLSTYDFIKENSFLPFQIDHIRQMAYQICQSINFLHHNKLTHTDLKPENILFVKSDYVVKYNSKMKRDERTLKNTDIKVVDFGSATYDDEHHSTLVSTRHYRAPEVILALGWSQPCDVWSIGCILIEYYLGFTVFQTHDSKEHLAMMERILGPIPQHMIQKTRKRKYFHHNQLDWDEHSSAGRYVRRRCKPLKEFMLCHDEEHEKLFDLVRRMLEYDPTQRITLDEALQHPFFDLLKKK
# assay_explanation: qHTS Assay for Inhibitors of CDC-like Kinase 4 (ADP-FP Assay) (AID 1795); also: nearly all actives have a fitted effect of over 60% in size
# experimental_parameters: Transcreener ADP fluorescence polarization; series mostly up to 50 µM
Inconclusive results are not listed. Activity calls are given as the source filed them. Calls come from the whole dose curve; as a rule, active = well fitted inhibition curve with a large enough effect; inconclusive = small, poorly fitted or top-dose-only effect; inactive = flat fitted curve, though single readings scatter.
The categories you may choose from are active, inactive

Worked examples, 10 molecules total:
| smiles_structure | target_or_system | class_name |
| --- | --- | --- |
| COc1ccc(CNc2nc(-c3ccc4c(c3)OCO4)nc3ccccc23)c(OC)c1 | Dual specificity protein kinase CLK4 (Homo sapiens) (UniProt Q9HAZ1) | inactive |
| CN(C)C(=O)c1ccc(-c2ccc3ncnc(N(C)Cc4ccco4)c3c2)cc1 | Dual specificity protein kinase CLK4 (Homo sapiens) (UniProt Q9HAZ1) | active |
| CN1CCN(c2ncncc2-c2ccc(N(C)C)cc2)CC1 | Dual specificity protein kinase CLK4 (Homo sapiens) (UniProt Q9HAZ1) | inactive |
| COc1ccccc1-c1nccc(NCc2ccccc2)n1 | Dual specificity protein kinase CLK4 (Homo sapiens) (UniProt Q9HAZ1) | inactive |
| COc1ncc2nc(-c3cccs3)c(=O)n(Cc3ccc(F)cc3)c2n1 | Dual specificity protein kinase CLK4 (Homo sapiens) (UniProt Q9HAZ1) | inactive |
| COc1ccccc1CNc1ccnc(-c2ccccc2OC)n1 | Dual specificity protein kinase CLK4 (Homo sapiens) (UniProt Q9HAZ1) | inactive |
| COc1ccc(CNc2ccnc(-c3cccnc3)n2)c(OC)c1 | Dual specificity protein kinase CLK4 (Homo sapiens) (UniProt Q9HAZ1) | inactive |
| COc1cccc(-c2ccc3ncnc(NC4CC4)c3c2)c1 | Dual specificity protein kinase CLK4 (Homo sapiens) (UniProt Q9HAZ1) | active |
| COc1cccc(Cn2c(=O)c(-c3cn(C)c4ccccc34)nc3cnc(OC)nc32)c1 | Dual specificity protein kinase CLK4 (Homo sapiens) (UniProt Q9HAZ1) | inactive |
| CN(C)c1ncc2nc(-c3ccccc3)c(=O)n(Cc3cccs3)c2n1 | Dual specificity protein kinase CLK4 (Homo sapiens) (UniProt Q9HAZ1) | inactive |

What is the recorded call for this molecule in the test? c1ccc(CNc2ncnc3ccc(-c4ccoc4)cc23)cc1
active

Hi team, can someone confirm the assay call for COCCn1c(=O)c(-c2ccc(Cl)cc2)nc2cnc(N3CCNCC3)nc21 ?
inactive

###

A collection of molecules and their measured max response
# assay_explanation: qHTS Assay for Lipid Storage Modulators (AID 1519)
# experimental_parameters: Drosophila S3 cells, BODIPY lipid droplet/cell ratio, laser cytometry; measured here: cell count channel max response; cells loaded with oleic acid
Results filed as inconclusive are left out.
Response body: numeric value in %, unit text excluded.

| molecule | unit_string | max response |
| --- | --- | --- |
| CN(C)CC/C=C1\c2ccccc2CSc2ccccc21 | % | -12.7 |
| COc1ccccc1CN1CC[C@@]2(CCCN(C(=O)c3cc(C(F)(F)F)cc(C(F)(F)F)c3)C2)C1 | % | 2.09 |
| COc1cccc(Cn2c(=O)cnc3cnc(N4CCN(C)CC4)nc32)c1 | % | 20.4 |
| N#Cc1cccc(NC(=O)N2CCC3(CC2)CCN(C(=O)c2cccc(F)c2)CC3)c1 | % | 6.66 |
| C[C@@H](Oc1ccc(Oc2cnc3ccc(Cl)cc3n2)cc1)C(=O)O | % | -7.54 |
| N#Cc1cccc(NC(=O)N2CCCC3(CCN(S(=O)(=O)c4ccccc4)CC3)C2)c1 | % | 1.48 |
| COCC(=O)N1CCC2(CCCN(c3ncccn3)C2)CC1 | % | 9.8 |
| O=C(c1cccc(F)c1)N1CCC2(CC1)CN(Cc1ccccc1)C2 | % | -5.75 |

Form field: reported max response of CN1CCCC2(CCN(S(=O)(=O)c3ccccc3)CC2)C1
19.8

Can you share its max response? I mean this molecule: Cc1nc2cnc(N(C)C)nc2n(Cc2cccs2)c1=O
10.1

Endpoint output: max response of CC(C)NC(=O)N1CCC2(CC1)CCN(S(=O)(=O)c1ccccc1)CC2 . Value?
-0.645

Reported max response for COc1cccc(-c2nc(Nc3ccncc3)c3ccccc3n2)c1 : what is it?
-14.4

Which max response is listed for COc1ccccc1CN1CCCC2(CCN(C(=O)c3cc(C(F)(F)F)cc(C(F)(F)F)c3)CC2)C1 ?
-3.38

State the recorded max response for this entry: CN(C)Cc1ccccc1-c1cc(-n2ccnc2)ncn1
4.13

Record request: max response value, item COc1ccccc1CN1CCCC2(CCN(C(=O)c3ccncc3)CC2)C1
5.27

Name the recorded max response for Cc1noc(C)c1C(=O)N1CCC2(CC1)CCN(c1ccncc1)CC2 .
9.32

# get_value(readout='max response', item= O=C(c1cnccn1)N1CCC2(CCN(Cc3ccncc3)CC2)CC1 )
2.59

Value lookup for max response; key = N#CCCn1c(=O)c(-c2cccs2)nc2cnc(N3CCNCC3)nc21
5.4

Item COCC(=O)N1CCC[C@@]2(CCN(C(c3ccccc3)c3ccccc3)C2)C1 has what recorded max response?
-8.5

# query: max response of entry Cc1cccc(CNc2ncnc3ccc(-c4ccccc4C#N)cc23)c1
4.98

Given the entry CS(=O)(=O)N1CCC[C@@]2(CCN(c3ccncc3)C2)C1 , report its measured max response.
-15.6

Recorded max response of C[C@@](N)(Cc1ccc(O)c(O)c1)C(=O)O , please.
6.8

Bench note: what max response did COc1cccc(Cn2c(=O)c(C)nc3cnc(Nc4cccc(OC)c4)nc32)c1 show?
11.9

Need max response, item CN1CCN(c2ccnc(-c3ccc(N(C)C)cc3)n2)CC1
22.6

# query: max response of entry O=C(c1cccc(F)c1)N1CCC2(CCCN(C(c3ccccc3)c3ccccc3)C2)CC1
14.6

Where do these numbers come from? They come from PubChem BioAssay (NCATS).
